Test system: Plasma
protocol-text: Metabolic stability in human plasma
Assay type: ADME, cell-free
assay-readout: Stability (%)
Numbers only, in %.

Query: Find the measured Stability: item COC(=O)C1CN(c2nc(=O)c3cc(C(F)(F)F)cc([N+](=O)[O-])c3s2)CCC12OC[C@H](C)O2 (stereo partly drawn) , target or system Plasma.
Result: 51

Query: Enter reported Stability observed with Plasma for O=c1nc(N2CCC(c3ccccc3)CC2)sc2c([N+](=O)[O-])cc(C(F)(F)F)cc12
Result: 96

Query: Any idea what Stability came out for O=c1nc(NCc2ccc3c(c2)OCCO3)sc2c([N+](=O)[O-])cc(C(F)(F)F)cc12 on Plasma?
Result: 86

Query: Record O=c1nc(N2CCC(F)(F)CC2)sc2c([N+](=O)[O-])cc(C(F)(F)F)cc12 : what is its Stability with Plasma?
Result: 64

Query: Under Plasma: Stability value of CN(C)c1ccc(CN(C)c2nc(=O)c3cc(C(F)(F)F)cc([N+](=O)[O-])c3s2)cc1 ?
Result: 90

// batch mode: one Stability value per listed entry
1. O=c1nc(N2CCN(c3nccs3)CC2)sc2c([N+](=O)[O-])cc(C(F)(F)F)cc12
2. CN(C(=O)CN1CCN(c2nc(=O)c3cc(C(F)(F)F)cc([N+](=O)[O-])c3s2)CC1)c1ccccc1
3. CCCOCC1COC2(CCN(c3nc(=O)c4cc(C(F)(F)F)cc([N+](=O)[O-])c4s3)CC2)O1 (stereo not drawn)

Result:
99
95
98

----------
For each of the compounds below, state its CC50 at 72 h.
protocol-text: Cytotoxicity against human HeLa cells after 72 hrs by methylene blue staining
Format: cell-based
Answers are plain numbers, in µM.

Worked cases, CC50 at 72 h given:
Query: Need CC50 at 72 h, item CN(C(=O)CN1CCN(c2nc(=O)c3cc(C(F)(F)F)cc([N+](=O)[O-])c3s2)CC1)c1ccccc1
Result: 39

Query: Look up CC50 at 72 h: CN(c1nc(=O)c2cc(C(F)(F)F)cc([N+](=O)[O-])c2s1)[C@H]1CCN(Cc2ccccc2)C1
Result: 38

Query: State the recorded CC50 at 72 h for this entry: COC(=O)C1CN(c2nc(=O)c3cc(C(F)(F)F)cc([N+](=O)[O-])c3s2)CCC12OC[C@H](C)O2 (some centres undefined)
Result: 36

Proceed to the following item.
Query: Need CC50 at 72 h of Cc1ccc(CNc2nc(=O)c3cc(C(F)(F)F)cc([N+](=O)[O-])c3s2)n1C , thanks.
Result: 48

----------
protocol-text: Antiproliferative activity against human HUVEC cells after 72 hrs by methylene blue staining
Assay type: cell-based
assay-readout: GI50 at 72 h (µM)
Answers are plain numbers, in µM.

For each of the compounds below, state GI50 at 72 h.
1. O=c1nc(NCc2ccc3c(c2)OCCO3)sc2c([N+](=O)[O-])cc(C(F)(F)F)cc12
2. CN(c1nc(=O)c2cc(C(F)(F)F)cc([N+](=O)[O-])c2s1)[C@H]1CCN(Cc2ccccc2)C1

Result:
[20, 18]

----------
protocol-text: Antiproliferative activity against human K562 cells after 72 hrs by electronic cell analysis
Assay type: cell-based
Please go through the items and note down their GI50 at 72 h.
One number for each entry, in µM.

Examples with their reported GI50 at 72 h follow.
Query: Item Cc1ccc(CNc2nc(=O)c3cc(C(F)(F)F)cc([N+](=O)[O-])c3s2)n1C has what recorded GI50 at 72 h?
Result: 21

Query: Given CN(C(=O)CN1CCN(c2nc(=O)c3cc(C(F)(F)F)cc([N+](=O)[O-])c3s2)CC1)c1ccccc1 , state its recorded GI50 at 72 h.
Result: 30

Now examine the next entry.
Query: Requested read-out: GI50 at 72 h. Entry: C[C@H]1COC2(CCN(c3nc(=O)c4cc(C(F)(F)F)cc([N+](=O)[O-])c4s3)CC2)O1
Result: 11
